test: inhibition of 3D7 malaria parasite growth – strain 3D7 (AID 2306);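 note: 0% = DMSO wells and 100% = chloroquine plus artemisinin control wells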; settings: P. falciparum 3D7 erythrocytic growth, LDH absorbance, 72 h; at 2 µM; active compounds read high
measured endpoint: growth inhibition (%)
Number in %, nothing else.

In: What value of growth inhibition has been reported for the following compound? CN(C)CCNC(=O)c1csc(Nc2ccc(Cl)c(Cl)c2)n1
Out: 100

In: Quick check: growth inhibition of O=C(Nc1ccc2nc(-c3ccc4nc(NC(=O)C5CCCCC5)sc4c3)[nH]c2c1)C1CCCCC1 ?
Out: 100

In: Fill blank: measured growth inhibition of the compound NOCCCOc1ccccc1 is ____.
Out: 100

In: Item O=C(CCCc1ccccc1)Nc1cccc(N2CCC(N3CCN(c4ccccc4O)CC3)CC2)c1 has what recorded growth inhibition?
Out: 98

In: What value of growth inhibition has been reported for the following compound? COc1cccc(CN2CCC(C(=O)Nc3ccc(-c4nc5ccccc5[nH]4)cc3)CC2)c1
Out: 101

In: Which growth inhibition is listed for NC1CCN(CCc2ccc(NS(=O)(=O)c3cccc4ccccc34)cc2)CC1 ?
Out: 94

In: Would you kindly share the measured growth inhibition for O=C1NC(=O)C(c2cccc(NC(=O)c3ccncc3)c2)=C1c1ccccc1 ?
Out: 101

In: Which value of growth inhibition has been reported for Cc1cc2c(cc1C(F)(F)F)N(C(=O)Nc1cc(OCCN(C(C)C)C(C)C)cc(C(F)(F)F)c1)CC2 in the records?
Out: 100

In: # growth inhibition lookup, item COc1cccc(C(=O)NCCc2cccc(Cl)c2)c1Oc1ccccc1
Out: 97

In: Dear colleague, I am looking for the recorded growth inhibition of the following compound: CN1CCC(C(=O)Nc2cccc(-c3ccc(-c4nc5ccc(F)cc5[nH]4)cc3)c2)CC1
Out: 100

In: Value lookup for growth inhibition; key = Cc1ccc(Oc2c(-c3ccccc3CN3CCCC3CN(C)C)cnn(C)c2=O)cn1 (stereo not drawn)
Out: 88

In: So what's the measured growth inhibition for this one? CC[C@H]1CN(Cc2cccc(O)c2)CC[C@H]1CCCc1ccnc2ccc(O)cc12
Out: 103

In: Reported growth inhibition, compound O=[N+]([O-])c1cnc(Nc2ccccc2O)nc1Nc1ccccc1O : ____
Out: 98

In: What value of growth inhibition has been recorded for this entry: CN1CCC(Oc2ccc(CN3CC[C@H](NC(=O)c4cc(F)cc(F)c4)C3)c3ccccc23)C1 (stereo partly drawn)
Out: 98

In: Bench note: what growth inhibition did CC1Cc2ccccc2N1CC(=O)Nc1cc(C(F)(F)F)ccc1-n1cncn1 (stereo not drawn) show?
Out: 97

In: Quick one: growth inhibition for CCOc1ccccc1CNc1nccc(NCc2ccc(Cl)cc2Cl)n1 ?
Out: 83

In: Param item = CN1CCC(NCc2cccc(-c3nn(C)c4nc(NC5CCCC5)ncc34)c2)CC1 ; retrieve measured growth inhibition.
Out: 98

In: GET /values?readout=growth inhibition&item= Nc1ncc(-c2ccsc2)c2ccc(-c3ccc4cn[nH]c4c3)cc12
Out: 95

In: Entry under review: NC(=O)c1cccc(Nc2nccc(Nc3ccc(Oc4cccc(Cl)c4)c(Cl)c3)n2)c1 . Reported growth inhibition?
Out: 93

In: Query: growth inhibition; subject: O=C(Nc1ccc2c(c1)CCC2)c1ccc(CN2CCCN(Cc3cccc(O)c3)CC2)cc1
Out: 88

In: Field request: growth inhibition | item: CCC[C@@H]([C@@H](CC1CCCCC1)C(=O)N[C@@H](CCOC(=O)NCC)C(=O)Nc1nccs1)N(O)C=O
Out: 101

In: Looking for the measured growth inhibition of COc1ccc2nccc([C@@H](O)CN3CCC(NCc4cc5ccc(C#N)cc5[nH]4)CC3)c2c1 , can you help?
Out: 100

In: Query (compound): CN1CCN(CCCN(Cc2ccc(-c3cccc(CNC4CCCC4)c3)cc2)C(=O)Nc2ccccc2)CC1 ; field requested: growth inhibition
Out: 92

In: Need growth inhibition, item Cc1cnc2ccc(NS(=O)(=O)c3ccc4c(Cl)cccc4c3)cc2c1N1CCNCC1
Out: 101

In: Which growth inhibition is reported for this compound? Cc1[nH]c(C)c(-c2ccc(CCc3ccc(F)cc3F)cc2)c(=O)c1Cl
Out: 98

In: Any idea what its growth inhibition is? The compound is O=C(Cc1cnc[nH]1)Nc1cccc(-c2ccc(-c3nc4ccc(C(F)(F)F)cc4[nH]3)s2)c1
Out: 101

In: Which measured growth inhibition value corresponds to N#Cc1cccc(Nc2ncc3c(-c4cccc(NC(=O)Cc5cccc(Cl)c5)c4)c[nH]c3n2)c1 ?
Out: 101

In: Which growth inhibition value is on record for COc1cc(O)c2c(=O)c(OC)c(-c3cccc(Cl)c3OC3O[C@H](CO)[C@@H](O)[C@H](O)[C@H]3O)oc2c1OC (stereo partly drawn) ?
Out: 101

In: # growth inhibition lookup, item CCN1CCC(N(CCCCCCCCc2ccc(C(F)(F)F)cc2)C(=O)Cn2c(CCc3cccc(F)c3F)cc(=O)c3ccccc32)CC1
Out: 88

In: Field request: growth inhibition | item: COc1ccc(C2CCN(CCCCNC(=O)c3ccc(NC(=O)c4ccc(Cl)cc4)cc3)CC2)c(C)c1
Out: 98

In: Would you kindly share the measured growth inhibition for Cc1cc(NS(=O)(=O)c2cccc(C(C)N3CCC(N4CCCC4)CC3)c2)ccc1C(C)C (stereo not drawn) ?
Out: 100

In: Quick one: growth inhibition for CC[C@H](C)CNC(=O)c1cncc(-c2ccc(CNCCCc3ccccc3)cc2)c1 ?
Out: 101

In: Reported growth inhibition, compound CCc1cn2c3c(cc(C(=O)N[C@@H](Cc4ccccc4)[C@H](O)CNC4CCC4)cc13)N(C)S(=O)(=O)CC2 : ____
Out: 98

In: Any idea what its growth inhibition is? The compound is O=C1c2ccccc2CN1CCCN1CCC(Oc2ccc(F)cc2)CC1
Out: 97

In: Need growth inhibition, item CCCCC1=CC2C(=O)C(C(=O)OC)=CN=C2C=C1OCc1ccccc1 (stereo not drawn)
Out: 99

In: Which growth inhibition value is on record for Cc1cccc2[nH]c(-c3cccc(-c4ccc(NC(=O)c5cnc[nH]5)cc4)c3)nc12 ?
Out: 101

In: Please look up its growth inhibition: CCC(C)c1ccc(Nc2nc(C)cc(N(CC)CCCN3CCCCC3)n2)cc1 (stereo not drawn)
Out: 101

In: I have this compound here, O=C(Nc1ccc(F)cc1)c1cnc(N2CCN(c3ccncc3)CC2)c(Cl)c1 , and I need its recorded growth inhibition.
Out: 100

Data provenance: PubChem BioAssay
